Source of measurements: paper PMC3355094

Reported RFU (relative fluorescence units) values are given for each entry in this list.
System: CCL1
Test: Glycan array analysis of CCL1 (CFG mammalian glycan array V4.2)
Format: binding, Coprinopsis cinerea
Conditions: Alexa Fluor 488 labeled CCL1 200 µg/ml, array V4.2, average of triplicates
attribute_measured: RFU (relative fluorescence units) (RFU)

molecule="NCCCO[C@@H]1O[C@H](CO)[C@@H](O)[C@H](O)[C@H]1NC(=O)CO [GlcN(Gc)-Sp8]" attribute_measured="RFU (relative fluorescence units)" result_number=32
molecule="C[C@@H]1O[C@@H](OCCCN)[C@H](O)[C@H](O)[C@H]1O [Rha-Sp8]" attribute_measured="RFU (relative fluorescence units)" result_number=46
molecule="C[C@@H]1O[C@@H](OCCCN)[C@@H](O)[C@H](O)[C@@H]1O [Fuc-Sp8]" attribute_measured="RFU (relative fluorescence units)" result_number=26
molecule="CC(=O)N[C@H]1[C@H](OCCN)O[C@H](CO)[C@@H](O)[C@@H]1O [GlcNAc-Sp0]" attribute_measured="RFU (relative fluorescence units)" result_number=6
